# Tested on: MS2 coat protein
# assay summary: apparent Kd, MS2 coat protein; higher = weaker binding; RNA-MaP array; FMN 200 µM where present
# particulars: ligand present: flavin mononucleotide; designed as: ON switch for flavin mononucleotide
I'd appreciate it if you could supply apparent Kd values for the items below.
Give bare numbers, in nM.

[[record]]
seq_string = "GUAGCAUACGGAGGAUAUGUAGGAUCCACAUGAGGAUCACCCAUGUUAAGGACAGAAGGCCGUAUGCUACAAGAGCGAAAGCUC"
observation_type = "apparent Kd"
number = 12.3

[[record]]
seq_string = "AAAAAAAAAACGCAGGAUAUCCAAAAAAAAACAUGAGGAUCACCCAUGUAAAAAAAAAAAAAAUGGGAGAAGGGUGAAAAAAAAAA"
observation_type = "apparent Kd"
number = 51

[[record]]
seq_string = "GUGGUCAGACAUGAGGAUCACCCAUGUGGAAUAAAUAACAGACAGGAUAUAUAAUAUAGGAUAUAGUAGAAGGGUCGAUUGGUG"
observation_type = "apparent Kd"
number = 85.8

[[record]]
seq_string = "UUCAAAUUCGUAGGAUAUGUAUAAAUUUUCUACAUGAGGAUCACCCAUGUUUCCAUUUUAAAUUGACAGAAGGACGUAAUCUAA"
observation_type = "apparent Kd"
number = 9.73

[[record]]
seq_string = "GGUCCGCACUAGAAGGGUGACAUGAGGAUCACCCAUGUGCACUUCCGCUCUUAGCGGAAAGUGCCACAGGAUAUAGUGUGGAUU"
observation_type = "apparent Kd"
number = 20.3


// for each sequence below, give its apparent Kd
1. GUAGGCGACCAGAAGGGUGACAUGAGGAUCACCCAUGUAGAUGUGUUCCCGCUUGGGAGCCGUCCACAGGAUAUGGUUGCUUAG
2. UUUACAUGAGGAUCACCCAUGUUUAGAAAGAUUGGUUUAGGUGAGGAUAUACAUGAUAAUGAAUUGUAGAAGGCACUGGGUACA

A.
42.5
24

###

What apparent Kd was measured for each of the following?
# System: MS2 coat protein
# assay summary: apparent Kd, MS2 coat protein; higher = weaker binding; RNA-MaP array
# particulars: ligand present: flavin mononucleotide; designed as: ON switch for flavin mononucleotide
Answers are plain numbers, in nM.

Reference set (3 entries):
[[record]]
seq_string = "GCCACGCUAGAAGGAUAUUUGCCAUAAGUACGGAAAGAAGGUCUCGCCGGAUCGAACAUGAGGAUCACCCAUGUGUGGGUCAGA"
observation_type = "apparent Kd"
unit_annotation = "nM"
number = 26

[[record]]
seq_string = "AUAGAGGAUAAAGGAUAUGAGGUGAACAUCGAUUCAGAAGGUUAUCAGGAUACAUGAGGAUCACCCAUGUUUCCUUUGCUGUUG"
observation_type = "apparent Kd"
unit_annotation = "nM"
number = 22.9

[[record]]
seq_string = "GGGUUACACACAUGAGGAUCACCCAUGUUUGCGUGGGCGGGCAGAAGGAGAACCGGAUUACACUUCUAGGAUAUGCAGAUGAUC"
observation_type = "apparent Kd"
unit_annotation = "nM"
number = 28.2


Now consider the entry below.
Lookup result for `ACAUAUUCCAGAGGAUAUUGUGGUAUCCAGUUAAGGAGAUCUUACAUGAGGAUCACCCAUGUGGACAAGAAGGCUGAACGCUCC` ; measured apparent Kd: 14.7

From: the EternaBench riboswitch data
